- method summary: viability loss with induced miR-34 in A549 – imaging, A549 dox-inducible miR-34, nuclei and caspase counts, primary screen (AID 1347080); further: test concentration not given here
- assay context: A549 miR-34 inducible, Hoechst nuclei count, 48 h; stronger effect = lower value; cell number ratio, induced over uninduced

{"compound": "CCCCCCOC(=O)N=C(N)c1ccc(NCc2nc3cc(C(=O)N(CCC(=O)OCC)c4ccccn4)ccc3n2C)cc1", "fold change": 0.94}
{"compound": "CCCCCCCCCC(=O)OCC(CO)OC(=O)CCCCCCCCC (stereo not given)", "fold change": 1.02}
{"compound": "O=c1c2nccnc2ncn1Cc1ccc2nsnc2c1", "fold change": 0.878}
{"compound": "CC1C[C@@H]2[C@@H](C(O)C[C@@]3(C)[C@H]2CC[C@@]3(O)C(=O)CO)[C@@]2(C)C=CC(=O)C=C12 (stereo not given in full)", "fold change": 0.787}
{"compound": "Cc1cc(Nc2nc(NC(C)c3ncc(F)cn3)ncc2Cl)n[nH]1 (stereo not given)", "fold change": 1.07}
{"compound": "CNC(=O)C(Cc1ccccc1)NC(=O)C(CC(C)C)C(CSc1cccs1)C(=O)NO (stereo not given)", "fold change": 0.843}
{"compound": "CCCCC/C=C\\C/C=C\\C/C=C\\C/C=C\\CCCC(=O)O[C@@H](CO)COCCCCCCCCCCCCCCCC", "fold change": 0.961}
{"compound": "COc1ccc(F)c(-c2cccc(N)n2)c1", "fold change": 0.864}
{"compound": "NS(=O)(=O)c1ccc(NC(=O)Nc2ccc(F)cc2)cc1", "fold change": 0.971}
{"compound": "CC(=O)N[C@@H](CC(=O)N[C@H](CCC(=O)O)C(=O)O)C(=O)O", "fold change": 0.929}
